Biological target: Gal(b1-3)GlcNAc(b1-3)Gal(b1-4)GlcNAc(b1-6)[Gal(b1-3)GlcNAc(b1-3)]Gal(b1-4)Glc
Assay: glycan array binding signal (z-score within array); higher = stronger binding
Details: glycan notation: IUPAC condensed, linker removed
Only a selection was taken, and the strongest signals are over-represented in it overall.
MEASUREMENT_NAME: glycan array binding signal (z-score)

BINDER: Pwp5 ND (Candida glabrata) (protein) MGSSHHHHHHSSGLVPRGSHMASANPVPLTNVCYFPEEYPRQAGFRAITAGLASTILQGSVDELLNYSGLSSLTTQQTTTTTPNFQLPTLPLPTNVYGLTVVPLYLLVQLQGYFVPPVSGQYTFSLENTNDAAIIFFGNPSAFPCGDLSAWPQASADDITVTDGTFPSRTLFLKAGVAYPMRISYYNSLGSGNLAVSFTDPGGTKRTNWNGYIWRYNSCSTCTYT
glycan array binding signal (z-score): -0.519

Query: Returns the measured glycan array binding signal (z-score) for the input binder. Input: Epa22 (Candida glabrata) (protein) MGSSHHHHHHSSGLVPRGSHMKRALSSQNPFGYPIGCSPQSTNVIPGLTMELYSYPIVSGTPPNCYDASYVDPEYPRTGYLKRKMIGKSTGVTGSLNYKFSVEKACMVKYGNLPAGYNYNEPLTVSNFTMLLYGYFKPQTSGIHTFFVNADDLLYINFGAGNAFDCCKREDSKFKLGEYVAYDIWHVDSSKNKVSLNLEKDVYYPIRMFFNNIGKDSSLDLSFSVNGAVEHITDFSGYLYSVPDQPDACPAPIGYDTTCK
Response: -0.145

Query: What value of measured glycan array binding signal (z-score) is listed for Protein L(B1-B4) (Finegoldia magna), Q51912 (protein) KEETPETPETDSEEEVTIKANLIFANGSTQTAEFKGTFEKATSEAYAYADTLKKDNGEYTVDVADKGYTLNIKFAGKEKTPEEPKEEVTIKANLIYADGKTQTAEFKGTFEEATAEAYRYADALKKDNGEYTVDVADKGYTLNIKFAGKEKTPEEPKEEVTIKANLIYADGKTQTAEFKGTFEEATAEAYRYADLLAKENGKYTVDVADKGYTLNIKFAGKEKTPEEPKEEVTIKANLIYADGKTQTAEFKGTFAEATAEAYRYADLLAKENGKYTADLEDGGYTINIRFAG ?
Response: -0.192
